EXPERIMENTAL SYSTEM: P2X purinoceptor 4 (Rattus norvegicus, UniProt P51577)
Sequence (P51577 whole entry): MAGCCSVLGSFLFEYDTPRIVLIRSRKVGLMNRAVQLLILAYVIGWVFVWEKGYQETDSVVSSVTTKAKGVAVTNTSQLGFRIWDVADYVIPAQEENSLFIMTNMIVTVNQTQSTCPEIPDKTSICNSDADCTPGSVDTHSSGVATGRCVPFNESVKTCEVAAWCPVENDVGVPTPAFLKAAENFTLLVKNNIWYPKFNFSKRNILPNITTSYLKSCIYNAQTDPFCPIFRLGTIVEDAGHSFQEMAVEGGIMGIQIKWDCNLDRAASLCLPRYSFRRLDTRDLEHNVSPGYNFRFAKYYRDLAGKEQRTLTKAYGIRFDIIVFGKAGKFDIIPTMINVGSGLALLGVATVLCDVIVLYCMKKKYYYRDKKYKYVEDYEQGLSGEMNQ
PROTOCOL NOTES: Antagonist activity against rat P2X4 receptor expressed in Xenopus laevis oocyte assessed as inhibition of ATP-induced inward current by two-electrode voltage-clamp electrophysiology
Listing of entries alongside the reported IC50.

> print(dat)
                           structure.string   result
1  Nc1c(S(=O)(=O)O)cc(Nc2ccccc2S(=O)(=O)O)c2c1C(=O)c1ccccc1C2=O  > 10 µM
2  Nc1c(S(=O)(=O)O)cc(Nc2cccc(Br)c2)c2c1C(=O)c1ccccc1C2=O  > 10 µM
3  Nc1c(S(=O)(=O)O)cc(NC2CCCCC2)c2c1C(=O)c1ccccc1C2=O  > 10 µM
4  Nc1c(S(=O)(=O)O)cc(Nc2ccccc2O)c2c1C(=O)c1ccccc1C2=O  > 10 µM
5  Nc1c(S(=O)(=O)O)cc(Nc2ccc(CC(=O)O)cc2)c2c1C(=O)c1ccccc1C2=O  > 10 µM
6  CC(=O)Nc1ccc(Nc2cc(S(=O)(=O)O)c(N)c3c2C(=O)c2ccccc2C3=O)cc1  > 10 µM

Prompt line: Param readout= IC50; system= P2X purinoceptor 4 (Rattus norvegicus, UniProt P51577); entry= "CCOc1ccccc1Nc1cc(S(=O)(=O)O)c(N)c2c1C(=O)c1ccccc1C2=O" ; returns value.
Response line: > 10 µM

Prompt line: Param readout= IC50; system= P2X purinoceptor 4 (Rattus norvegicus, UniProt P51577); entry= "Nc1c(S(=O)(=O)O)cc(Nc2ccc(Nc3ncccn3)c(S(=O)(=O)O)c2)c2c1C(=O)c1ccccc1C2=O" ; returns value.
Response line: > 10 µM

Prompt line: Param readout= IC50; system= P2X purinoceptor 4 (Rattus norvegicus, UniProt P51577); entry= "Nc1c(S(=O)(=O)O)cc(Nc2ccc(Oc3ccccc3)cc2)c2c1C(=O)c1ccccc1C2=O" ; returns value.
Response line: > 10 µM

###

EXPERIMENTAL SYSTEM: P2X purinoceptor 2 (Rattus norvegicus)
PROTOCOL NOTES: Positive modulator activity against rat P2X2 receptor expressed in Xenopus laevis oocyte assessed as maximum ATP-induced inward current by two-electrode voltage-clamp electrophysiology in presence of 10 uM ATP
MEASURE NAME: EC50
Your answer should be a number followed by the unit of measure.

Prompt line: Fill in: EC50 of "Nc1c(S(=O)(=O)O)cc(Nc2cccc(Oc3ccccc3)c2)c2c1C(=O)c1ccccc1C2=O" is ___
Response line: 489 nM

###

EXPERIMENTAL SYSTEM: P2X purinoceptor 2 (Rattus norvegicus, UniProt P49653)
PROTOCOL NOTES: Antagonist activity against rat P2X2 receptor expressed in Xenopus laevis oocyte assessed as inhibition of ATP-induced inward current by two-electrode voltage-clamp electrophysiology
Listing of entries alongside the reported pIC50.
# pIC50 is unitless: minus log10 of the molar concentration; print number only

Please review the entries below; each comes with its answer.
> print(dat)
                           structure.string  number
1  CC(=O)Nc1ccc(Nc2cc(S(=O)(=O)O)c(N)c3c2C(=O)c2ccccc2C3=O)cc1    6.16
2  Nc1c(S(=O)(=O)O)cc(Nc2ccc(Nc3nc(Cl)nc(Nc4cccc(S(=O)(=O)O)c4)n3)c(S(=O)(=O)O)c2)c2c1C(=O)c1ccccc1C2=O    5.40
3  Nc1c(S(=O)(=O)O)cc(Nc2ccc(S(=O)(=O)O)c(Nc3nc(Cl)nc(Cl)n3)c2)c2c1C(=O)c1ccccc1C2=O    7.10

Prompt line: Fill in: pIC50 of "Cc1cccc(Nc2cc(S(=O)(=O)O)c(N)c3c2C(=O)c2ccccc2C3=O)c1C" is ___
Response line: 6.00

Prompt line: Fill in: pIC50 of "Nc1c(S(=O)(=O)O)cc(Nc2ccc(C(=O)O)cc2)c2c1C(=O)c1ccccc1C2=O" is ___
Response line: 6.00

Prompt line: Fill in: pIC50 of "Cc1ccc(Nc2cc(S(=O)(=O)O)c(N)c3c2C(=O)c2ccccc2C3=O)c(C)c1" is ___
Response line: 6.00

Prompt line: Fill in: pIC50 of "Cc1cc(/N=N/c2ccc(S(=O)(=O)O)cc2S(=O)(=O)O)c(COP(=O)(O)O)c(C=O)c1O" is ___
Response line: 5.40

Prompt line: Fill in: pIC50 of "COc1cccc(Nc2cc(S(=O)(=O)O)c(N)c3c2C(=O)c2ccccc2C3=O)c1" is ___
Response line: 6.21

Prompt line: Fill in: pIC50 of "Nc1ccccc1Nc1cc(S(=O)(=O)O)c(N)c2c1C(=O)c1ccccc1C2=O" is ___
Response line: 6.00

Prompt line: Fill in: pIC50 of "Nc1c(S(=O)(=O)O)cc(Nc2cc(Nc3nc(Cl)nc(Cl)n3)cc(C(=O)O)c2)c2c1C(=O)c1ccccc1C2=O" is ___
Response line: 6.53

###

EXPERIMENTAL SYSTEM: P2Y purinoceptor 2 (Homo sapiens, UniProt P41231)
Sequence (P41231 whole entry): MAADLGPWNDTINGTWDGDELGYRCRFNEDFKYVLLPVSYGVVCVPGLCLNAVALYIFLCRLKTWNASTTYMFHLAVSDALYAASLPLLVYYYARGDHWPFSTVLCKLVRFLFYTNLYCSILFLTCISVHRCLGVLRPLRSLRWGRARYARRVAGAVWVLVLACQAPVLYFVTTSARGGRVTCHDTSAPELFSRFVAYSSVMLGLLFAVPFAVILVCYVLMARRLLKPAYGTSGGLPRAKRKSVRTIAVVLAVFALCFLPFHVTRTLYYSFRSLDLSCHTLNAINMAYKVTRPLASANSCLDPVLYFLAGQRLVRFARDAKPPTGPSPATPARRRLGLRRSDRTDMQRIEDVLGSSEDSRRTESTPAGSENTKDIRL
PROTOCOL NOTES: Antagonist activity against human P2Y2 receptor expressed in 1321N1 astrocytoma cells by calcium mobilization assay
Format: functional, cell-based
MEASURE NAME: IC50 (µM)
Kindly provide the numeric value in µM only, without the unit symbol.

> print(dat)
                           structure.string  output.unit  number
1  COc1cccc(Nc2cc(S(=O)(=O)O)c(N)c3c2C(=O)c2ccccc2C3=O)c1           µM      10
2  Nc1c(S(=O)(=O)O)cc(Nc2cccc(Nc3nc(Cl)nc(Cl)n3)c2)c2c1C(=O)c1ccccc1C2=O           µM    24.3
3  Nc1c(S(=O)(=O)O)cc(Nc2ccc(Nc3nc(O)nc(O)n3)cc2)c2c1C(=O)c1ccccc1C2=O           µM      30

Field: next compound
Prompt line: Fill in: IC50 of "Nc1c(S(=O)(=O)O)cc(Nc2ccc(Nc3nc(Cl)nc(Cl)n3)cc2)c2c1C(=O)c1ccccc1C2=O" is ___
Response line: 12.1

###

Listing of entries alongside the reported IC50.
EXPERIMENTAL SYSTEM: P2X purinoceptor 2 (Rattus norvegicus, UniProt P49653)
PROTOCOL NOTES: Antagonist activity against rat P2X2 receptor expressed in Xenopus laevis oocyte assessed as inhibition of […] inward current by two-electrode voltage-clamp electrophysiology
Format: functional
Your answer should be a number followed by the unit of measure.

Please review the entries below; each comes with its answer.
COMPOUND	IC50
Cc1cc(/N=N/c2ccc(S(=O)(=O)O)cc2S(=O)(=O)O)c(COP(=O)(O)O)c(C=O)c1O	39.8 µM
Nc1c(S(=O)(=O)O)cc(Nc2ccc(Nc3nc(Cl)nc(Nc4cccc(S(=O)(=O)O)c4)n3)c(S(=O)(=O)O)c2)c2c1C(=O)c1ccccc1C2=O	39.8 µM

Field: next compound
Prompt line: Fill in: IC50 of Nc1ncnc2c1ncn2[C@@H]1O[C@H](COP(=O)(O)OP(=O)(O)OP(=O)(O)O)[C@H]2OC3(O[C@H]21)C([N+](=O)[O-])=CC(=[N+]([O-])[O-])C=C3[N+](=O)[O-] (stereo partly drawn) [TNP-ATP SODIUM] is ___
Response line: 39.8 µM

###

EXPERIMENTAL SYSTEM: P2Y purinoceptor 4 (Homo sapiens, UniProt P51582)
Sequence (P51582 whole entry): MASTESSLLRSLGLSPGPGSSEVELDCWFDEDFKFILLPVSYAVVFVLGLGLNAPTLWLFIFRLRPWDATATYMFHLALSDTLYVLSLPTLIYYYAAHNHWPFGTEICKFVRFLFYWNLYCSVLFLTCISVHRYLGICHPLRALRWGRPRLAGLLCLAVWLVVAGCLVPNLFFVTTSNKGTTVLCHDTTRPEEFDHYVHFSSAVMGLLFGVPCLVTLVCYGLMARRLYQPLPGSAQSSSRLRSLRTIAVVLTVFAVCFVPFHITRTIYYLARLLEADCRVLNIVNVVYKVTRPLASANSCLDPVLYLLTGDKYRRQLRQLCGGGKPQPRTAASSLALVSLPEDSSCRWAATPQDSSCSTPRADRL
PROTOCOL NOTES: Antagonist activity against human P2Y4 receptor expressed in 1321N1 astrocytoma cells by calcium mobilization assay
Listing of entries alongside the reported IC50.
Kindly provide the numeric value in µM only, without the unit symbol.

Prompt line: Fill in: IC50 of "Nc1c(S(=O)(=O)O)cc(Nc2ccc(O)cc2)c2c1C(=O)c1ccccc1C2=O" is ___
Response line: 2.22

###

EXPERIMENTAL SYSTEM: P2X purinoceptor 2 (Rattus norvegicus) (UniProt P49653)
Sequence (whole entry): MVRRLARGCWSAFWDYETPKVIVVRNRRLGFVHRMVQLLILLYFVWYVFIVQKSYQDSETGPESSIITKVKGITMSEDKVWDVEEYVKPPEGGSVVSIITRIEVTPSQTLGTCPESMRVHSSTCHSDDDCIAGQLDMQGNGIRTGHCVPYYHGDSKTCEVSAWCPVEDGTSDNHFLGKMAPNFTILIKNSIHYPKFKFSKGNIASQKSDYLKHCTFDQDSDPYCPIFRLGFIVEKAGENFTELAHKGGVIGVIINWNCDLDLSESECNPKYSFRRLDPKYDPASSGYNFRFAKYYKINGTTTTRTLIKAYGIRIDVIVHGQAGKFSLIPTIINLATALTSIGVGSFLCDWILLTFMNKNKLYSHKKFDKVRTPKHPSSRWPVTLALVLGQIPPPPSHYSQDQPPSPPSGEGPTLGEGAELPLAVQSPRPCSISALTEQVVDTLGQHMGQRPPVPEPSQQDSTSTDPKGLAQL
PROTOCOL NOTES: Antagonist activity against rat P2X2 receptor expressed in Xenopus laevis oocyte assessed as potentiation of ATP-induced inward current at 100 nM by two-electrode voltage-clamp electrophysiology
MEASURE NAME: potentiation % (%)
Kindly provide the numeric value in % only, without the unit symbol.

Please review the entries below; each comes with its answer.
> print(dat)
                           structure.string    measure.name  output.unit  number
1  Nc1c(S(=O)(=O)O)cc(Nc2ccc(Nc3ccccc3)c(S(=O)(=O)O)c2)c2c1C(=O)c1ccccc1C2=O  potentiation %            %     110
2  Nc1c(S(=O)(=O)O)cc(Nc2cccc(Oc3ccccc3)c2)c2c1C(=O)c1ccccc1C2=O  potentiation %            %     132

Prompt line: Param readout= potentiation %; system= P2X purinoceptor 2 (Rattus norvegicus) (UniProt P49653); entry= "Cc1cc(C)cc(Nc2cc(S(=O)(=O)O)c(N)c3c2C(=O)c2ccccc2C3=O)c1" ; returns value.
Response line: 106

Prompt line: Param readout= potentiation %; system= P2X purinoceptor 2 (Rattus norvegicus) (UniProt P49653); entry= "Nc1c(S(=O)(=O)O)cc(Nc2cccc(Cc3ccccc3)c2)c2c1C(=O)c1ccccc1C2=O" ; returns value.
Response line: 120
